# Experiment Notes: Metabolic stability in mouse plasma
# Condition: CES1–/–, mouse, plasma
Parameter: remaining at 1 h, 10 µM

CN(C)CC(=O)N[C@@H](Cc1cccc(F)c1)C(=O)N[C@@H](CCC(=O)C=[N+]=[N-])C(=O)OC(C)(C)C [Prodrug P16] ... 99%

Qu. Please look up its remaining at 1 h, 10 µM: CN(C)CC(=O)N[C@H](Cc1ccccc1)C(=O)N[C@@H](CCC(=O)C=[N+]=[N-])C(=O)OC(C)(C)C [Prodrug P12]
Ans. 92%

====

# Experiment Notes: Metabolic stability in mouse plasma
# Condition: CES1–/–, mouse, plasma
remaining at 1 h, 10 µM values for the molecules below.
Provide only the numeric value, understood in %.

As a guide, the following entries are already answered.
CN(C)CC(=O)N[C@@H](CC(C)(C)C)C(=O)N[C@@H](CCC(=O)C=[N+]=[N-])C(=O)OC(C)(C)C [Prodrug P21] ... 98
CC(C)(C)OC(=O)[C@H](CCC(=O)C=[N+]=[N-])NC(=O)[C@H](Cc1c[nH]c2ccccc12)NC(=O)CN1CCOCC1 [Prodrug P7] ... 95

Moving on to the next molecule.
Qu. Please look up its remaining at 1 h, 10 µM: CN(C)CC(=O)N[C@@H](Cc1ccccc1)C(=O)N[C@@H](CCC(=O)C=[N+]=[N-])C(=O)OC(C)(C)C [Prodrug P11]
Ans. 93
